The reported numbers originate from ChEMBL document CHEMBL1649418.

molecular target: Adenosine receptor A3 (Homo sapiens); test: Displacement of [3H]NECA from human adenosine A3 receptor expressed in human HeLa cells by liquid scintillation counting; type: cell-based; details: read-out: Ki
Sequence (P0DMS8 whole entry): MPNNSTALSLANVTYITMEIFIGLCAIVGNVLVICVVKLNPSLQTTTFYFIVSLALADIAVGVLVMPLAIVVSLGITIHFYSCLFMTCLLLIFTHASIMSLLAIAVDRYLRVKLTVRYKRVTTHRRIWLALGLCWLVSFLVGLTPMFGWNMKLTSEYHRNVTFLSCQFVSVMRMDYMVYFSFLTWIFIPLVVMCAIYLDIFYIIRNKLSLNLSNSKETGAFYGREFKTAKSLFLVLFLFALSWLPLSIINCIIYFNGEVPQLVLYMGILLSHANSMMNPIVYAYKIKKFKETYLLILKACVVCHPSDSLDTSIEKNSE
pKi: −log10 of the molar value.
The following ranges of pKi define the classes used here: b0 (below 7), b1 (7 to below 8), b2 (8 or more)

input-smiles: CCC(=O)Nc1nc(-c2ccsc2)cc(-c2ccsc2)n1
label: b0
//
input-smiles: CCC(=O)Nc1cc(-c2ccc(Cl)cc2)nc(-c2ccc(Cl)cc2)n1
label: b1
//
input-smiles: CCCC(=O)Nc1cc(-c2ccc3c(c2)OCO3)nc(-c2ccc3c(c2)OCO3)n1
label: b1
//
input-smiles: CC(=O)Nc1cc(-c2ccsc2)nc(-c2ccsc2)n1
label: b1
//
input-smiles: CCC(=O)Nc1cc(-c2ccc(OC)cc2)nc(-c2ccc(OC)cc2)n1
label: b2
//
input-smiles: CCCC(=O)Nc1cc(-c2ccc(C)cc2)nc(-c2ccc(C)cc2)n1
label: b1

---

Reported pKi values for a set of molecules
target: Adenosine receptor A3 (Homo sapiens); assay: Displacement of [3H]NECA from human adenosine A3 receptor expressed in human HeLa cells by liquid scintillation counting; assay type: cell-based; details: read-out: Ki
pKi: −log10 of the molar value.
property-name: pKi

input-smiles: CCC(=O)Nc1nc(-c2ccc3c(c2)OCO3)cc(-c2ccc3c(c2)OCO3)n1
value-observed: 6.90
--
input-smiles: COc1ccc(-c2cc(NC(=O)C(C)C)nc(-c3ccc(OC)cc3OC)n2)c(OC)c1
value-observed: 7.80
--
input-smiles: CCC(=O)Nc1cc(-c2ccco2)nc(-c2ccco2)n1
value-observed: 8.21
--
input-smiles: CCC(=O)Nc1cc(-c2ccsc2)nc(-c2ccsc2)n1
value-observed: 7.19
--
input-smiles: CC(=O)Nc1cc(-c2ccc(C(F)(F)F)cc2)nc(-c2ccc(C(F)(F)F)cc2)n1
value-observed: 6.90
--
input-smiles: CC(=O)Nc1cc(-c2ccoc2)nc(-c2ccoc2)n1
value-observed: 8.00
--
input-smiles: CCC(=O)Nc1cc(-c2ccccc2F)nc(-c2ccccc2F)n1
value-observed: 6.80
--
input-smiles: CCCC(=O)Nc1cc(-c2ccco2)nc(-c2ccco2)n1
value-observed: 8.00
--
input-smiles: CCC(=O)Nc1cc(-c2ccc(F)cc2)nc(-c2ccc(F)cc2)n1
value-observed: 7.92
--
input-smiles: CCC(=O)Nc1cc(-c2ccc3c(c2)OCO3)nc(-c2ccc3c(c2)OCO3)n1
value-observed: 7.84
